Test system: Pseudomonas fluorescens HPPD polypeptide (wild-type and mutants)
EXPERIMENTAL DETAILS: Coupled HPPD activity assay: turnover and residual turnover in crude HPPD polypeptide extracts with and without Cmpd. 1
Type: biochemical
RUN PARAMETERS: presence of 100 μM Cmpd. 1; changes in absorbance (OD) at 320 nm in the coupled assay, 30 min
Description: For the generation of crude HPPD polypeptide extract in micro titer plates (MTP) for the determination of residual activity in inhibition assays, cells were grown in 40 or 150 μl LB medium containing 1% Glucose (Merck, Darmstadt, Germany) and 100 μg/ml ampicillin in a standard 96 well plate (Thermo Fisher Scientific, Waltham, USA) incubated for about 18 h in a humidity incubator at 37° C. […]
Residual turnover overview

| MOLECULE | Residual turnover |
| --- | --- |
| SEQ ID NO:67 (protein, mutant HPPD polypeptide) MADLYENPMGLMGFEFIEFASPTPGTLEPIFEIMGFTKVATHRSKNVHLYRQGEINLILNNEPNSIASYFAAEHGPSVCGMAFRVKDSQKAYNRALELGAQPIHIDTGPMELNLPAIKGIGGAPLYLIDRFGEGSSIYDIDFVYLEGVERNPVGAGLKVIDHLTHNVYRGRMVYWANFYEKLFNFREARYFDIKGEYTGLTSKAMSAPDGMIRIALNEESSKGAGQIEEFLMQFNGEGIQHVAFLTDDLVKTWDALKKIGMRFLTAPGDEYYEMLEGRLPDHGEPVDQLQARGILLDGSSVEGDKRLLLQIFSEQLMGPVFFEFIQRKGDDGFGPDSFKVLFESVERDQVRRGVLTAD | 0.127 |

Lookup: Determine from records and report Residual turnover for SEQ ID NO:32 (protein, mutant HPPD polypeptide) MADLYENPMGLMGFEFIEFASPTPGTLEPIFEIMGFTKVATHRSKNVHLYRQGEINLILNNEPNSIASYFAAEHGPSVCGMAFRVKDSQKAYNRALELGAQPIHIDTGPMELNLPAIKGIGGAPLYLIDRFGEGSSIYDIDFVYLEGVERNPVGAGLKVIDHLTHNVYRGRMVYWANFYEKLFNFREARYFDIKGEYTGLTSKAMSAPDGMIRIPLNEESSKGAGQIEEFLMQFNGEGIQHVAFLTDDLVKTWDALKKIGMRFMTAPGDEYYEMLEGRLPDHGEPVDQLQARGILLDGSSVEGDKRLLLQIFSEQLMGPVFFEFIQRKGDDGFGPHSFKVLFESMERDQVRRGVLTAD
Found: 0.154

Lookup: Determine from records and report Residual turnover for SEQ ID NO:39 (protein, mutant HPPD polypeptide) MADLYENPMGLMGFEFIEFASPTPGTLEPIFEIMGFTKVATHRSKNVHLYRQGEINLILNNEPNSIASYFAAEHGPSVCGMAFRVKDSQKAYNRALELGAQPIHIDTGPMELNLPAIKGIGGAPLYLIDRFGEGSSIYDIDFVYLEGVERNPVGAGLKVIDHLTHNVYRGRMVYWANFYEKLFNFREARYFDIKGEYTGLTSKAMSAPDGMIKIPLNEESSKGAGQIEEFLMQFNGEGIQHVAFLTDDLVKTWDALKKIGMRFMTAPGDEYYEMLEGRLPDHGEPVDQLQARGILLDGSSVEGDKRLLLQIFSEKLMGPVFFEFIQRKGDDGFGPDSFKVLFESMERDQVRRGVLTAD
Found: 0.057

Lookup: Determine from records and report Residual turnover for SEQ ID NO:51 (protein, mutant HPPD polypeptide) MADLYENPMGLMGFEFIEFASPTPGTLEPIFEIMGFTKVATHRSKNVHLYRQGEINLILNNEPNSIASYFAAEHGPSVCGMAFRVKDSQKAYNRALELGAQPIHIDTGPMELNLPAIKGIGGAPLYLIDRFGEGSSIYDIDFVYLEGVERNPVGAGLKVIDHLTHNVYRGRMVYWANFYEKLFNFREARYFDIKGEYTGLTSKAMSAPDGMIRIALNEESSKGAGQIEEFLMQFNGEGIQHVAFLTDDLVKTWDALKKIGMRFMTAPGDEYYEMLEGRLPDHGEPVDQLQARGILLDGSSVEGDKRLLLQIFSEQLMGPVFFEFIQRKGDDGFGPHSFKVLFESIERDQVRRGVLTAD
Found: 0.106
